Tested on: SgK110
Condition: concentration: 1 μM, replicates: in singlicate; n = 1;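 also: KINOMEscan kinase panel screen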
Measurement kind: %Inh

Record excerpt, results attached:
Cc1ccc(NC(=O)c2cccc(C#N)c2)cc1-c1ccc(C(=O)Nc2ccncc2)cc1 ... 3%
Cl.O=S(=O)(c1cccc(F)c1)c1ccc(Nc2ncnc3cc(Br)sc23)cc1Cl ... 0%
Cl.Cl.c1ccc(-c2cc3ccncc3cc2OC2CCNCC2)cc1 ... 0%
Fc1cccc(COc2ccc(Nc3ncnc4cc[nH]c34)cc2Cl)c1 ... 0%
FC(F)(F)c1cc(Nc2nccc(-c3c(-c4ccc(Cl)cc4)nn4ncccc34)n2)ccc1Cl ... 23%
COc1ccc(NC(=O)c2ccc(-c3cc(-c4nnc(C)o4)ccc3C)cc2)cc1 ... 13%
O=C(Nc1ccccc1)Nc1ccc(Oc2ccc3nccn3n2)cc1 ... 27%
CN1c2ccc(-c3ccc(C(=O)NCCO)cc3)cc2-c2[nH]ncc2S1(=O)=O ... 0%

Q: Quick check: %Inh of "Fc1ccc(Nc2nccc(-c3c(-c4ccc(Cl)cc4)nn4ncccc34)n2)cc1F" ?
Ans: 9%

Q: Quick check: %Inh of "CC(C)N1CCC(n2cnc(-c3ccc(F)cc3)c2-c2ccnc(N)n2)CC1" ?
Ans: 0%

Q: Quick check: %Inh of "Cc1ccc(C)c(NC(=O)NCCNc2ccnc(Nc3ccc(F)cc3)n2)c1" ?
Ans: 0%

###

System: GCN2(Kin.Dom.2,S808G)
Construct: gene EIF2AK4
Condition: concentration: 1 μM, replicates: in singlicate; n = 1
Parameter %Inh: see the listing below.
Respond with the bare value in %.

CNc1nccc(-c2c(-c3ccc(F)cc3)ncn2C2CCN(C)CC2)n1 ... 3
Clc1ccc(-c2cc(-c3c[nH]nc3-c3ccccn3)ccn2)cc1 ... 7
CNc1nccc(-c2c(-c3ccc(F)cc3)ncn2CCCN2CCOCC2)n1 ... 0
Nc1nc(-c2ccc3c(N)n[nH]c3c2)cc(N2CCCCC2)n1 ... 0
FC(F)(F)c1cc(Nc2nccc(-c3c(-c4ccc(Cl)cc4)nn4ncccc34)n2)ccc1Cl ... 0
Cl.c1ccc(Cn2ccc3cc(Nc4ncnc5ccccc45)ccc32)cc1 ... 0

Q: Quick check: %Inh of "C[C@@H]1CCN(C(=O)CO)C[C@@H]1N(C)c1ncnc2[nH]ccc12" ?
Ans: 7

Q: Quick check: %Inh of "Clc1cc(Nc2ncnc3cc[nH]c23)ccc1OCc1ccccn1" ?
Ans: 0

###

Parameter %Inh: see the listing below.
System: PIK3C2B
Condition: concentration: 1 μM, replicates: in singlicate; n = 1
Respond with the bare value in %.

CNc1nccc(-c2c(-c3ccc(F)cc3)ncn2CCCN2CCOCC2)n1 ... 0
O=C(Nc1ccccc1)Nc1ccc(Oc2ccc3nccn3n2)cc1 ... 0
O=C(CCO)NCCn1ccc2ncnc(Nc3ccc(Oc4cccc(C(F)(F)F)c4)c(Cl)c3)c21 ... 0

Consider the record given below.
Q: Quick check: %Inh of "Fc1cccc(COc2ccc(Nc3ncnc4cc[nH]c34)cc2Cl)c1" ?
Ans: 32

###

Tested on: TTK
Condition: concentration: 1 μM, replicates: in singlicate; n = 1
%Inh below 7% gives Not fulfilled; %Inh at or above it gives Fulfilled.

Clc1ccc(-c2cc(-c3c[nH]nc3-c3ccccn3)ccn2)cc1 ... Fulfilled

Q: I'd appreciate it if you could say whether "CCc1nc(-c2cccc(N(C)S(=O)(=O)c3ccccc3)c2)c(-c2ccnc(Nc3ccc(N4CCN(C(C)=O)CC4)nc3)n2)s1" has %Inh at least equal to 7%.
Ans: Fulfilled

Q: I'd appreciate it if you could say whether COc1ccc(Nc2nccc(N3CCC(NC(=O)Nc4ccc5c(c4)OCO5)C3)n2)cc1 (centres unmarked) has %Inh at least equal to 7%.
Ans: Not fulfilled

Q: I'd appreciate it if you could say whether "COc1cc2ncnc(Nc3ccc(OCc4ccccc4Br)c(Cl)c3)c2cc1OC.Cl" has %Inh at least equal to 7%.
Ans: Not fulfilled

Q: I'd appreciate it if you could say whether "Fc1cccc(COc2ccc(Nc3ncnc4cc[nH]c34)cc2Cl)c1" has %Inh at least equal to 7%.
Ans: Not fulfilled

Q: I'd appreciate it if you could say whether "CCc1nc(-c2cccc(C)c2)c(-c2ccnc(NC(=O)c3ccccc3)c2)s1" has %Inh at least equal to 7%.
Ans: Fulfilled
